Biological target: T1, human IL-1RAcP on 293T/17-FR cells (human, UniProt Q9NPH3 21-570)
T1 sequence (looked up): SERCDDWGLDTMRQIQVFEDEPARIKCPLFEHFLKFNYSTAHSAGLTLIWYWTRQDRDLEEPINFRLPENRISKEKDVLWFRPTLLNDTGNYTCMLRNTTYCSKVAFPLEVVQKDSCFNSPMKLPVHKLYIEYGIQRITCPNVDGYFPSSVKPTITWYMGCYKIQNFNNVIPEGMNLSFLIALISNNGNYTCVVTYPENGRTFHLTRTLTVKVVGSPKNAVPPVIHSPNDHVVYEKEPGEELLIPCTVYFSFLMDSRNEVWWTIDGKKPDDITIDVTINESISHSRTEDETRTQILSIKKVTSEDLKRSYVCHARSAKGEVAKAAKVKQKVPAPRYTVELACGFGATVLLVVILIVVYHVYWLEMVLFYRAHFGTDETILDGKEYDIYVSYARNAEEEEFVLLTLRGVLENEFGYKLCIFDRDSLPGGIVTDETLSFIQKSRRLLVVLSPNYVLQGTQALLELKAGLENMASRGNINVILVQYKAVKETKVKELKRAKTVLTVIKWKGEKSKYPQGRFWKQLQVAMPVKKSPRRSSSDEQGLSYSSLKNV
Test: cell-based or functional assay
Kindly return class 1 if reported functional reporter gene assay (% inhibition), 5 µg/mL mAb is no lower than 90%; return class 0 if it is lower.

Illustrative cases are given below, each with its answer.
>  <binder>
P013.S.01.B.D06 (antibody, V domains shown, rabbit monoclonal antibody; also called P013.A.00029.D02) VH: QSLEESGGDLVKPGASLTLTCTASGFSFSSSYYMCWVRQAPGKGLEWIACIYAGSSGVTYYASWAKGRFTISDTSSTTVTLQMTSLTAADTATYFCASETDGNYFNLWGPGTLVTVSS VL: ALVMTQTPSPVSAAVGGTVTINCQASEDIYSNLAWFQQKPGQPPKLLIYRASTLASGVPSRFSGSGSGTEFTLTISGLQSDDAATYYCLGVYTYSTDIHAFGGGTEVVVK

>  <answer.label>
class 1

$$$$
>  <binder>
P013.S.02.B.D04 (antibody, V domains shown, rabbit monoclonal antibody; also called P013.A.00086.A06) VH: QSLEESGGDLVQPGGSLTLTCKASGFSFSASYWICWVRQAPGKGLEWIGCIYIGGGGRYYASWAKGRFTISKTSSTTVTLQMTSLTAADTATYFCARDPVTSGSDYVYDLWGPGTLVTVAS VL: AYDMTQTPASVEVAVGGTVTIKCQASESISTWLAWYQQKPGQPPNLLIYRASTLASGVPSRFYGSGYGTEFTLTISGVESADAATYYCQQGYTVNNIDNVFGGGTEVVVK

>  <answer.label>
class 0

$$$$
>  <binder>
P013.S.02.B.E04 (antibody, V domains shown, rabbit monoclonal antibody; also called P013.A.00088.A02) VH: QSLEESGGDLVKPGASLTLTCTASGFSLSSGGMSWVRQAPGKGLGWIGYINTGSGSTYYASWVNGRFTISKTSSTTVSLQMTSLTAADTATYFCAGGLPSDLWGPGTLVTVSS VL: DIVMTQTPSSVEAAVGGTVTIKCQASQSINSRLAWYQQKPGQPPKLLIYSASTLASGVSSRFKGSGSGTEFTLTISDLESADGATYYCLSHYLTSSSSYGDAFGGGTEVVVK

>  <answer.label>
class 0

$$$$

Input: Is functional reporter gene assay (% inhibition), 5 µg/mL mAb at least 90%? Consider P013.S.01.B.F04 (antibody, V domains shown, rabbit monoclonal antibody; also called P013.A.00133.A12) VH: LEQSGGGAEGGLVKPGGSLELCCKASGFSLSTSYWRCWVRQAPGKGLEWIGCIYAGSSDATYYANWVNGRFTLSRDIDQSTGCLQLNSLTAADTAMYYCASGVGFGYFNLWGQGTLVTVSS VL: ALVMTQTPSPVSAAVGGTVTINCQASEDIYSNLAWFQQKPGQPPKLLIYDASTLASGVPSRFSGSGSGTEFTLTISGLQSDDAATYYCLGVYTHISADNAFGGGTEVVVK
Output: class 1

Input: And what about the binder P013.S.01.B.B02 (antibody, V domains shown, rabbit monoclonal antibody; also called P013.A.00014.B03) VH: LEQSGGGAEGGLVKPGGSLELCCKASGFSLSSSYWICWVRQAPGKGLEWIGCIYTGSSGITYYASWVNGRFTLSRDIDQSTGCLQLNSLTAADTAMYYCAKDGPSTLFNFWGQGTLVTVSS VL: ALVMTQTPSPVSAAVGGTVTINCQASEDIYSNLAWFQQKPGQPPKLLIYRASTLASGVPSRFKGSGSGTEFTLTISGLQSDDAATYYCLGVYTYPSADNAFGGGTEVVVR ?
Output: class 1

Input: Next: P013.S.02.B.D01 (antibody, V domains shown, rabbit monoclonal antibody; also called P013.A.00141.G02) VH: LEQSGGGAEGGLVKPGGSLELCCKASGFSLSSNYWMCWVRQAPGKGLEWIGCIYAGSSDSTYYASWVNGRFTLSRDIDQSTGCLQLNSLTAADTAMYYCASPGYGGYGYYGLWGQGTLVTVSS VL: ALVMTQTPSPVSAAVGGTVTINCQASEDIYSNLAWFQQKPGQPPKLLIYDASTLASGVPSRFSGSGSGTEFTLTISGLQSDDAATYYCLGVYTYISPDGTDNAFGGGTEVVVK
Output: class 0

Input: Entry P013.S.01.B.F05 (antibody, V domains shown, rabbit monoclonal antibody; also called P013.A.00087.C06) VH: QSLEESGGRLVTPGGSLTLTCTVSGIDLSNYAMSWVRQAPGKGLEWIGSVISGGSTYYATWAKGRFTISKTSTTVDLKMTSLTTEDTATYFCARGCPGYNGDKYALDLWGPGTVVTVSS VL: AFEMTQTPSSVSEPVGGTVTIKCQASQSIHNYLSWYQQKPGQRPKLLIYRASTLASGVPSRFKGSGSGTEFTLTISGVESADAATYYCQQGATSYDIDNAFGGGTEVVVK please
Output: class 0

Input: Another binder to check: P013.S.01.B.F03 (antibody, V domains shown, rabbit monoclonal antibody; also called P013.A.00025.F02) VH: LEQSGGGAEGGLVKPGGSLELCCKASGFSLGSSYWICWVRQAPGKGLEWIGCIYAGSSGITYYASWVSGRFTLSRDIDQSTGCLQLNSLTAADTAMYYCARDIYASTSGYDLWGQGTLVTVSS VL: ALVMTQTPSPVSAAVGGTVTINCQASEDIYSNLAWFQQKPGQPPKLLIYQASTLASGVPSRFSGSGSGTEFTLTISGLQSDDAAAYYCLGVCTYIGADNTLYNTFGGGTEVVVK
Output: class 1

Values were extracted from patent US20190106487A1.
